Where do these numbers come from? They come from patent US20180057604A1.

Reported Kd by item:
biological target: T1, human BACE1 ECD; experiment: Octet, pH 7.5;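 also: antibodies captured on anti-human capture biosensor tips, dissociation followed in PBS with BSA buffer, kinetics fitted with a one-to-one binding model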
T1 construct: analyte of the Octet assay (200 nM) and enzyme of the first short substrate assay; also called human BACE1 extracellular domain
T1 sequence (single chain, as listed by the source limits assumed): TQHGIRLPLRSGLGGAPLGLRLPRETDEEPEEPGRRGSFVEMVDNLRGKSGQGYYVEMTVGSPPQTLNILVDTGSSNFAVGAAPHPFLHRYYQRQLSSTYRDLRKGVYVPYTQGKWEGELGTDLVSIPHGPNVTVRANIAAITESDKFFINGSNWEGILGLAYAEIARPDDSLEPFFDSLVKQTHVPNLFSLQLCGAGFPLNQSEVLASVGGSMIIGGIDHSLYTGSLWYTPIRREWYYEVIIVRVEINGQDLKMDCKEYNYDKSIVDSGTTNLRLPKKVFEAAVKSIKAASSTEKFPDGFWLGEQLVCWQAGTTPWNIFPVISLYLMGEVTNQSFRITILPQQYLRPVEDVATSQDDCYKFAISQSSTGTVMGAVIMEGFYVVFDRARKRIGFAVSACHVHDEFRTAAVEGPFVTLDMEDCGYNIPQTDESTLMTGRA
Number in nM, nothing else.

* 5260 (antibody, V domains shown, anti-BACE1 IgG) VH: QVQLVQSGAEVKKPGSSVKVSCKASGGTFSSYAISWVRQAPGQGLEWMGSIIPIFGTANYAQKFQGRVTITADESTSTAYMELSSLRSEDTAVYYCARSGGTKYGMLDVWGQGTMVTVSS VL: EIVMTQSPATLSVSPGERATLSCRASQSVGSNLAWYQQKPGQAPRLLIYGASTRATGIPARFSGSGSGTEFTLTISSLQSEDFAVYYCQQAVVWPPRTFGGGTKVEIK | 94

Proceed to the following item.
Kd lookup needed for 5644 (antibody, V domains shown, anti-BACE1 IgG) VH: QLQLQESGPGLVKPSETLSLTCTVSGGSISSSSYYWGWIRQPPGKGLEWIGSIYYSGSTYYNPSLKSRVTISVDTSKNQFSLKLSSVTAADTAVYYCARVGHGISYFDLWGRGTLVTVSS VL: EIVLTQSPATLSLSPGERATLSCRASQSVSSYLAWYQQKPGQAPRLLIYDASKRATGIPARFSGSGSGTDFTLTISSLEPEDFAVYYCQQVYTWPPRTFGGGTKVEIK , thanks.
15
